assay: Dynamic solubility test in water; assay type: physicochemical; conditions: thermodynamic from solid; 8 hr; 100 mL water, 37° C., 200 rpm; read-out: Solubility of tacrolimus (mean ± SD)
PROPERTY NAME: solubility at 8 h (µg/mL)
Respond numerically; units are µg/mL and should not be typed.

## Input Fill blank: measured solubility at 8 h of the compound C=CC[C@@H]1/C=C(\C)C[C@H](C)C[C@H](OC)[C@H]2O[C@@](O)(C(=O)C(=O)N3CCCC[C@H]3C(=O)O[C@H](/C(C)=C/[C@@H]3CC[C@@H](O)[C@H](OC)C3)[C@H](C)[C@@H](O)CC1=O)[C@H](C)C[C@@H]2OC [Control, tacrolimus] is ____.
## Output 0.96

====

Assay: Dynamic solubility test in water
Format: physicochemical
Settings: thermodynamic from solid; 4 hr; 100 mL water, 37° C., 200 rpm; read-out: Solubility of tacrolimus (mean ± SD)
Method: The excessive specimens were loaded and appropriate aliquots were collected after 0.5, 1, 2, 4, and 8 hours, and the samples were analyzed by high performance liquid chromatography.
PROPERTY NAME: solubility at 4 h (µg/mL)
A number alone suffices; assume µg/mL.

## Input Which solubility at 4 h value is on record for C=CC[C@@H]1/C=C(\C)C[C@H](C)C[C@H](OC)[C@H]2O[C@@](O)(C(=O)C(=O)N3CCCC[C@H]3C(=O)O[C@H](/C(C)=C/[C@@H]3CC[C@@H](O)[C@H](OC)C3)[C@H](C)[C@@H](O)CC1=O)[C@H](C)C[C@@H]2OC [Control, tacrolimus] ?
## Output 0.74
